Each recorded value in this set is attributed to the supplement of paper PMC10567573.

B1: ZNF263 (parent)
chain: PEASHLRFRRFRFQEAAGPREALS

Variants of: B1
Assay: protein stability index of a GFP-peptide fusion (GPS, HEK-293T) (PSI 1-6); higher = more stable;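 also: lentivirally expressed fusions sorted by FACS into six bins by GFP to DsRed ratio, PSI derived from sequencing read proportions per bin multiplied by bin number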
Conditions: c terminus: a fixed tail appended
Assign criterion met to entries whose protein stability index meets or exceeds 3; assign criterion not met to the rest.

Below, 5 variants whose answers are already recorded.
[
  {
    "sequence variant": "Q14Y",
    "assigned label": "criterion not met"
  },
  {
    "sequence variant": "S24Y",
    "assigned label": "criterion not met"
  },
  {
    "sequence variant": "A22S",
    "assigned label": "criterion not met"
  },
  {
    "sequence variant": "Q14E",
    "assigned label": "criterion met"
  },
  {
    "sequence variant": "A16L",
    "assigned label": "criterion not met"
  }
]

**Query** Tell me whether protein stability index is at least 3 here: E2S
**Result** criterion not met

**Query** Tell me whether protein stability index is at least 3 here: A22Q
**Result** criterion not met
